The values you see were collected from patent US7901893B2.

# tgt: rat brush border membrane vesicles (Rattus norvegicus, UniProt Q6T3U3)
# Construct: from tissue; host or cells: rat (male Sprague-Dawley) small-intestinal mucosa, brush border membrane vesicles
# assayOverview: Binding assay with rat brush border membrane vesicles
# settings: 0.03% sodium taurocholate and 0.05% digitonin; 1.25 mg protein/ml, 100 nM 1; read-out: Rat BBM Ki
Listed here: items and their measured pKi.
pKi field: float, defined as -log10 of concentration (mol/L).

In the examples that follow, each entry is paired with its recorded pKi.
- entrySmiles: "O=C(O)[C@H]1O[C@@H](Oc2ccc([C@@H]3[C@@H](CCCc4ccc(F)cc4)C(=O)N3c3ccc(F)cc3)cc2)[C@H](O)[C@@H](O)[C@@H]1O"
  pKi: 5.80
- entrySmiles: "O=C(O)[C@H]1O[C@@H](Oc2ccc([C@@H]3[C@@H](CC[C@@H](O)c4ccc(F)cc4)C(=O)N3c3ccc(F)cc3)cc2)[C@H](O)[C@@H](O)[C@@H]1O"
  pKi: 5.55

Now look at this one.
Prompt: Recorded pKi of O=C(O)[C@H]1O[C@@H](Oc2ccc([C@@H]3[C@@H](CC[C@H](O)c4ccc(F)cc4)C(=O)N3c3ccc(F)cc3)c(O)c2)[C@H](O)[C@@H](O)[C@@H]1O , please.
Completion: 6.55
